Numbers sourced from the NIST ThermoML archive (doi:10.1016/j.jct.2015.02.024).

# Test Name: activity coefficient (dimensionless); of the first substance listed, at infinite dilution; xn = mol fraction of the nth substance listed
# Particulars: 368.15 K; 101 kPa; Liquid; Chromatography; x1 = 0
Outcome Measure: activity coefficient
Field format: numeric only.

> print(dat)
                                   compound  measured
1  C=COC(C)=O [vinyl acetate] + C[N+]1(CCCO)CCOCC1.O=S(=O)([N-]S(=O)(=O)C(F)(F)F)C(F)(F)F      2.03
2  CCOC(C)=O [ethyl acetate] + C[N+]1(CCCO)CCOCC1.O=S(=O)([N-]S(=O)(=O)C(F)(F)F)C(F)(F)F      1.77
3  Cc1ccccc1 [toluene] + C[N+]1(CCCO)CCOCC1.O=S(=O)([N-]S(=O)(=O)C(F)(F)F)C(F)(F)F      4.22

Exam item: Need activity coefficient, item C1CCOC1 [tetrahydrofuran] + C[N+]1(CCCO)CCOCC1.O=S(=O)([N-]S(=O)(=O)C(F)(F)F)C(F)(F)F
Marked response: 1.23

Exam item: Also check CC(C)(C)O [2-methylpropan-2-ol] + C[N+]1(CCCO)CCOCC1.O=S(=O)([N-]S(=O)(=O)C(F)(F)F)C(F)(F)F
Marked response: 1.95

Exam item: Also check C#CCCCCC [1-heptyne] + C[N+]1(CCCO)CCOCC1.O=S(=O)([N-]S(=O)(=O)C(F)(F)F)C(F)(F)F
Marked response: 16.3

Exam item: Also check CCc1ccccc1 [ethylbenzene] + C[N+]1(CCCO)CCOCC1.O=S(=O)([N-]S(=O)(=O)C(F)(F)F)C(F)(F)F
Marked response: 7.09

Exam item: Also check COC(C)(C)C [2-methoxy-2-methylpropane] + C[N+]1(CCCO)CCOCC1.O=S(=O)([N-]S(=O)(=O)C(F)(F)F)C(F)(F)F
Marked response: 5.58

Exam item: Also check Cc1ccc(C)cc1 [1,4-dimethylbenzene] + C[N+]1(CCCO)CCOCC1.O=S(=O)([N-]S(=O)(=O)C(F)(F)F)C(F)(F)F
Marked response: 6.84

Exam item: Also check CCC(C)O (stereo not given) [butan-2-ol] + C[N+]1(CCCO)CCOCC1.O=S(=O)([N-]S(=O)(=O)C(F)(F)F)C(F)(F)F
Marked response: 2.29
